The reported numbers originate from the supplement of paper PMC7125110.

B1: glmS ribozyme (parent)
chain: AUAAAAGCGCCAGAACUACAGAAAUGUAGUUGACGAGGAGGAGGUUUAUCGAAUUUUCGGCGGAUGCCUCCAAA

Variants of: B1
Assay method text: self-cleavage kobs at 40 uM GlcN6P; higher = faster cleavage; RNA array
Details: with glucosamine-6-phosphate
This sample holds only a part of the variants without activity.
Observed property: self-cleavage kobs at 40 uM GlcN6P

The examples below pair each entry with its known result.
sequence_variant="A6G C50G" measured_result="0.000151 s⁻¹"
sequence_variant="G29C U31A U46A A53C C71U" measured_result="< 1e-05 s⁻¹"
sequence_variant="G9U C10G A48C A52G" measured_result="< 1e-05 s⁻¹"
sequence_variant="G43U G59A G60C" measured_result="< 1e-05 s⁻¹"
sequence_variant="A14U G37U" measured_result="< 1e-05 s⁻¹"

// self-cleavage kobs at 40 uM GlcN6P value for G7U U54C : < 1e-05 s⁻¹

// self-cleavage kobs at 40 uM GlcN6P value for C10U C58A C68A : < 1e-05 s⁻¹
